Source: paper PMC8809517

# Lookup of reported pKd keyed by entry
# STUDY_TARGET: T1, GFP-9S library array, motif 4 ND N98L;D124W (synthetic construct, N98L;D124W)
# T1 chain: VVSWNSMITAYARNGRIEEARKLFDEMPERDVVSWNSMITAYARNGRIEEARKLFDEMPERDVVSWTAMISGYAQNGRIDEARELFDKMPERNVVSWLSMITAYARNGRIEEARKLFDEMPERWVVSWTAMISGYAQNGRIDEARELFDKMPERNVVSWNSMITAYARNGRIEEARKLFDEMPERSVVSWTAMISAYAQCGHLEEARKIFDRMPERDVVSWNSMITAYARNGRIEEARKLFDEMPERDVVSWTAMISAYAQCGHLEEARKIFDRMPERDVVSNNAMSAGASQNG
# EXPERIMENTAL_DETAILS: high-throughput RNA pulldown from lysate on Ni-NTA beads; HRP: 50 mM Tris pH 8, 150 mM NaCl, 1 mM beta-mercaptoethanol, 50 ug/ml BSA, 3 ug/ml yeast RNA, 0.5% heparin; ITC and FP: Tris pH 8, 200 mM KCl, 5% glycerol; MST: 50 mM Tris pH 8, 200 mM NaCl, 1 mM DTT, BSA, heparin, 0.05% Tween 20
# TEST_SETTINGS: tags: N-terminal His-eGFP; label: 5' IRDye 800CW
pKd: −log10 of the molar value.
PROPERTY_NAME: pKd

BINDER	PROPERTY_NAME	NUMERIC_READOUT
AUUAAACGUGA (ssRNA) [IR-rpoA-A]	pKd	6.61
AUUAUACGUGA (ssRNA) [IR-rpoA-U]	pKd	6.61
